biological target: Androgen receptor (Mus musculus, UniProt P19091); test: Agonist activity at androgen receptor in mouse C2C12 cells by receptor transactivation assay
Sequence (P19091 whole entry): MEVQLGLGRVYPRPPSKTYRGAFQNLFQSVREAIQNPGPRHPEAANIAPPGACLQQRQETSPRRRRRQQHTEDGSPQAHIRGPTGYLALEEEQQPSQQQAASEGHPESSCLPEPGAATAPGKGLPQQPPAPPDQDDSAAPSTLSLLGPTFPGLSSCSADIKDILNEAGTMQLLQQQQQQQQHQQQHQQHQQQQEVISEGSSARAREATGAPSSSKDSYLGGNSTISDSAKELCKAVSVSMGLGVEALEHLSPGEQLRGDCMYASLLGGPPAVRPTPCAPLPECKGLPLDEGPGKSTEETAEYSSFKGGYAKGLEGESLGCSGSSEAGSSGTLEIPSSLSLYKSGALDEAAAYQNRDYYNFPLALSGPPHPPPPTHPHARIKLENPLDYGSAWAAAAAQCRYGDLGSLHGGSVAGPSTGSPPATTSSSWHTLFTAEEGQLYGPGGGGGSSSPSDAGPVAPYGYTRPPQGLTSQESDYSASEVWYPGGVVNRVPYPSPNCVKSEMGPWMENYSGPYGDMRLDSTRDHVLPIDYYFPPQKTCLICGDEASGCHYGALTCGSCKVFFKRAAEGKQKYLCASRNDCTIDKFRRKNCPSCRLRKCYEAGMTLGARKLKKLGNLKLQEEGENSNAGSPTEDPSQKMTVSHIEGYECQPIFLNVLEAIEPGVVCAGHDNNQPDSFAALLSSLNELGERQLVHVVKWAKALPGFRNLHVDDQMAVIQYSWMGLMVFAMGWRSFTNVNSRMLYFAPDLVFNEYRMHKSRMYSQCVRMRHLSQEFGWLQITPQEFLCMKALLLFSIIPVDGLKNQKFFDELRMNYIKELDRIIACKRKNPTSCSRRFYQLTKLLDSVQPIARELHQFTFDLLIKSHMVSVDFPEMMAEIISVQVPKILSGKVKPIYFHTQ
pEC50: −log10 of the molar value.
Assign true (1) whenever pEC50 does not fall below 8; assign false (0) whenever it does.

compound	discrete.label
Cc1c(NS(=O)(=O)N2CC[C@@H](O)[C@H]2C(=O)O)ccc(C#N)c1Cl	true (1)
CCC(=O)O[C@H]1CC[C@H]2[C@@H]3CCC4=CC(=O)CC[C@]4(C)[C@H]3CC[C@]12C [TESTOSTERONE PROPIONATE]	true (1)
Cc1c(N2C(=O)[C@@H]3[C@H](O)CCN3C2=O)ccc(C#N)c1Cl	true (1)
Cc1c(N2C(=O)[C@@H]3C[C@H](O)CN3S2(=O)=O)ccc(C#N)c1Cl	false (0)
Cc1c(N2C[C@@H]3[C@H](O)CCN3S2(=O)=O)ccc(C#N)c1Cl	false (0)
N#Cc1ccc(N2C(=O)[C@@H]3[C@H](O)CCN3C2=O)c2ccccc12	true (1)
Cc1c(N2C(C)[C@@H]3[C@@H](O)CCN3S2(=O)=O)ccc(C#N)c1Cl (some centres not stated)	false (0)
Cc1c(N2C(=O)[C@@H]3[C@@H](O)CCN3S2(=O)=O)ccc(C#N)c1Cl	false (0)
COC(=O)[C@@H]1[C@H](O)CCN1S(=O)(=O)c1ccc(C#N)c(Cl)c1C	false (0)
Cc1c(N2C(=O)[C@]3(C)[C@H](O)CCN3S2(=O)=O)ccc(C#N)c1Cl	false (0)
COC(=O)[C@@H]1[C@H](O)CCN1S(=O)(=O)Nc1ccc(C#N)c(Cl)c1C	false (0)

* * *

test: Oral bioavailability in rat at 10 mg/kg; assay type: ADME, organism-based; conditions: in vivo
assay.metric: bioavailability (%)

1. Cc1c(N2C(=O)[C@@H]3[C@H](O)CCN3S2(=O)=O)ccc(C#N)c1Cl 53

* * *

Measured pKi accompanies every entry in the list below.
Molecular target: Androgen receptor (Homo sapiens, UniProt P10275)
Sequence (P10275 whole entry): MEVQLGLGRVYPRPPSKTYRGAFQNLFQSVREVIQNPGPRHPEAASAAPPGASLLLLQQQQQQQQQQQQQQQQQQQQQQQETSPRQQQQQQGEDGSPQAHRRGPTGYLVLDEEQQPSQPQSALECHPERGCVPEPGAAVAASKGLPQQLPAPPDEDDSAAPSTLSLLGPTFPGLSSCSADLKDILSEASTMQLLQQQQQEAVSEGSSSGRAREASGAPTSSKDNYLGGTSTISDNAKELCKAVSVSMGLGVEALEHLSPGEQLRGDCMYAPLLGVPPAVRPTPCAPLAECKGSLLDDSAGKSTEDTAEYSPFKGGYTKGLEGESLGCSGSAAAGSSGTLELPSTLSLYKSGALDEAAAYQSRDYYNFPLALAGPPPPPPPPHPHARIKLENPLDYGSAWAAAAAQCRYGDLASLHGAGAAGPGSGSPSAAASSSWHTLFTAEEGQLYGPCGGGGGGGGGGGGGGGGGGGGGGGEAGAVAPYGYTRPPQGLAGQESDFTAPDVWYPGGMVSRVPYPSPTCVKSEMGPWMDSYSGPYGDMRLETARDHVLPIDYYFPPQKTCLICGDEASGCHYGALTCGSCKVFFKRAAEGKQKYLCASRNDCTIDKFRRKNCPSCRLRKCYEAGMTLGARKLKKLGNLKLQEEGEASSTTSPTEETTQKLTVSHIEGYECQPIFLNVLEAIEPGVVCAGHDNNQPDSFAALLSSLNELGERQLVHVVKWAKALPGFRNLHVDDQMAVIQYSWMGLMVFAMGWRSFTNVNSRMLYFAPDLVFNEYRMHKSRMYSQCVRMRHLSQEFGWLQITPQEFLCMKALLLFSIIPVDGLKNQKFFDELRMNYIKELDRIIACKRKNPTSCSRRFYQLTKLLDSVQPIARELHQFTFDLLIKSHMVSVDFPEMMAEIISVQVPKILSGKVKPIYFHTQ
Experiment: Displacement of [3H]DHT from human androgen receptor in MDA453 cells
pKi: −log10 of the molar value.
assay.metric: pKi

1) Cc1c(N2C[C@@H]3[C@@H](O)CCN3S2(=O)=O)ccc(C#N)c1Cl 6.72
2) Cc1c(N2C[C@@H]3[C@H](O)CCN3S2(=O)=O)ccc(C#N)c1Cl 7.85
3) COC(=O)[C@@H]1[C@H](O)CCN1S(=O)(=O)c1ccc(C#N)c(Cl)c1C 7.44
4) Cc1c(N2C(=O)[C@]3(C)[C@H](O)CCN3S2(=O)=O)ccc(C#N)c1Cl 8.09
5) Cc1c(N2C(=O)[C@@H]3[C@@H](O)CCN3S2(=O)=O)ccc(C#N)c1Cl 7.54

* * *

Measured Ki accompanies every entry in the list below.
target: Androgen receptor (Homo sapiens, UniProt P10275); test: Displacement of [3H]DHT from human androgen receptor in MDA453 cells

compound	measured.on	Ki / µM
Cc1c(N2C(=O)[C@@H]3[C@H](O)CCN3S2(=O)=O)ccc(C#N)c1Cl	Androgen receptor (Homo sapiens, UniProt P10275)	0.00045
CCC(=O)O[C@H]1CC[C@H]2[C@@H]3CCC4=CC(=O)CC[C@]4(C)[C@H]3CC[C@]12C [TESTOSTERONE PROPIONATE]	Androgen receptor (Homo sapiens, UniProt P10275)	0.00025
Cc1c(N2C(=O)[C@@H]3C[C@H](O)CN3S2(=O)=O)ccc(C#N)c1Cl	Androgen receptor (Homo sapiens, UniProt P10275)	0.044
Cc1c(N2C(C)[C@@H]3[C@@H](O)CCN3S2(=O)=O)ccc(C#N)c1Cl (some centres undefined)	Androgen receptor (Homo sapiens, UniProt P10275)	0.02

* * *

assay: Cmax in rat at 5 mg/kg, iv or 10 mg/kg, po; assay type: ADME, organism-based; settings: in vivo
assay.metric: Cmax (µM)

1) Cc1c(N2C(=O)[C@@H]3[C@H](O)CCN3S2(=O)=O)ccc(C#N)c1Cl 8.4

* * *

assay: Clearance in rat at 5 mg/kg, iv or 10 mg/kg, po; assay type: ADME, organism-based; conditions: in vivo
assay.metric: clearance (mL/min/kg)

1) Cc1c(N2C(=O)[C@@H]3[C@H](O)CCN3S2(=O)=O)ccc(C#N)c1Cl 12.8
